- assay_info: TEAD-YAP interaction inhibition, primary screen, TEAD-YAP interaction inhibitor project, luminescence, HEK-TIYL cells (AID 1259422)
- assay_context: TEAD-Gal4/YAP UAS-luciferase luminescence, at 9.12 µM
The campaign covered roughly 640,000 compounds. About 9,300 (1.5%) were called active. Rule as the data show it: active = inhibition above about 32%; inactive = the rest. The sample as a whole holds a higher share of actives than the screen did.
Could you please pick one outcome from this set? active, inactive

Problem: Answer briefly: the call reported for COc1ccc(C2=NOC(C(=O)NCc3ccco3)C2)cc1OC (stereo unspecified) in this assay.
Result: active

Problem: Answer briefly: the call reported for O=C1NC2(CCN(C(=O)C3CCN3C3CCCCC3)CC2)Nc2ccccc21 (stereo unspecified) in this assay.
Result: inactive

Problem: Answer briefly: the call reported for "Oc1ccc(CCNc2nc(NCCN3CCOCC3)nc3c2ncn3-c2ccsc2)cc1" in this assay.
Result: active

Problem: Answer briefly: the call reported for "Cc1cc2c(N(C)C3CCCCC3)ncnc2s1" in this assay.
Result: inactive

Problem: Answer briefly: the call reported for "Cc1ccc(NC(=O)Cc2cccc3ccccc23)c([N+](=O)[O-])c1" in this assay.
Result: inactive

Problem: Answer briefly: the call reported for "COc1cccc(/C=C/C(=O)c2ccc3c(c2)OCCO3)c1" in this assay.
Result: inactive

Problem: Answer briefly: the call reported for "COc1cc(OC)c(OC)cc1/C=N/NC(=O)c1ccccn1" in this assay.
Result: inactive

Problem: Answer briefly: the call reported for "O=C1NC2(CCN(C(=O)CCn3ncc4ccccc43)CC2)Nc2ccccc21" in this assay.
Result: inactive

Problem: Answer briefly: the call reported for "Clc1ccc(-n2ncc3c(NC4CCCCC4)ncnc32)cc1" in this assay.
Result: inactive
